Entries and their inhibition at 10 µM
studyTarget: PAK7/PAK5 (Homo sapiens, UniProt Q9P286)
Construct: purchased DiscoverX (KINOMEscan)
Sequence (Q9P286 whole entry): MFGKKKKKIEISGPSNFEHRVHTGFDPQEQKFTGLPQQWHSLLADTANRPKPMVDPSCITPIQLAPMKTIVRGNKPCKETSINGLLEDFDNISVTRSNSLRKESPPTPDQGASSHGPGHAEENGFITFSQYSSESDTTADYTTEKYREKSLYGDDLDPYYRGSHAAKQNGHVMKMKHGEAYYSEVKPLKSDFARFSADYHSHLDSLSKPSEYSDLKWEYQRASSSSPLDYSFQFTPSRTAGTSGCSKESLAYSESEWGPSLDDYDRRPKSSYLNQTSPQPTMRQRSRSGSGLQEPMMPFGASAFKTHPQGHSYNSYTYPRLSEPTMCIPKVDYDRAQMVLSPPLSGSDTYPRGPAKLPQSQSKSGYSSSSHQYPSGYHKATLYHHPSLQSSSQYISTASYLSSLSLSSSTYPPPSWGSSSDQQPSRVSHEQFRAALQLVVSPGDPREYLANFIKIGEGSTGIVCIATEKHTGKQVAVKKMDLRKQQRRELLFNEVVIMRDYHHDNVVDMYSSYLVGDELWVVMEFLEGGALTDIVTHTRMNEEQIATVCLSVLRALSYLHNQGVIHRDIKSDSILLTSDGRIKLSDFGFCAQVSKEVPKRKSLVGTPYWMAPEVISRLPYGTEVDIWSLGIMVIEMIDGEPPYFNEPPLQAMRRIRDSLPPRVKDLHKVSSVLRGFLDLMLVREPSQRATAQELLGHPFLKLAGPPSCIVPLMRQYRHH
testDescription: KINOMEscan competitive binding
experimentalParameters: n=1, read-out: Percent inhibition, PAK7/PAK5
endpointLabel: inhibition at 10 µM (%)

[
  {
    "compoundString": "Fc1cccc(COc2ccc(Nc3ncnc4c3CN(CCN3CCOCC3)CC4)cc2Cl)c1",
    "result": 0
  },
  {
    "compoundString": "COc1cc(Nc2nccc(-c3sc(N)nc3-c3cccc(NC(=O)c4c(F)cccc4F)c3)n2)cc(OC)c1OC",
    "result": 89.4
  },
  {
    "compoundString": "C[C@@H](Oc1cc(-c2cnc3ccccn23)sc1C(N)=O)c1ccccc1Cl",
    "result": 0
  },
  {
    "compoundString": "Cc1ccc(O)cc1N(C)c1ccnc(Nc2cccc(S(N)(=O)=O)c2)n1",
    "result": 98.5
  },
  {
    "compoundString": "COc1ccc(Nc2nccc(-c3cnn4ncccc34)n2)cc1",
    "result": 72.8
  },
  {
    "compoundString": "c1ccc(COc2cccc(-c3ccnc4[nH]ccc34)c2)cc1",
    "result": 0
  },
  {
    "compoundString": "Nc1ncc2c(-c3ccncc3)c[nH]c2n1",
    "result": 77.1
  },
  {
    "compoundString": "Clc1ccc(Nc2ncc(-c3ccccc3)s2)cc1",
    "result": 0
  },
  {
    "compoundString": "Cc1ccc(O)cc1Nc1ccnc(Nc2cccc(C(N)=O)c2)n1",
    "result": 67.6
  },
  {
    "compoundString": "CN1CCN(c2ccc(Nc3nccc(-c4cnn5ncccc45)n3)cc2C#N)CC1",
    "result": 99.2
  }
]
